B1: Zinc finger MYM-type protein 2, residues 463 to 506; numbered along this chain, Q9UBW7 (parent)
chain: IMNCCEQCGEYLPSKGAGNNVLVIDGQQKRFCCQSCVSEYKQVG

# Variants of: B1
# measurement_notes: abundance fitness (aPCA) (normalised: wild type 0, dead -1); higher = more abundant; growth selection in yeast, the domain comes from the species named
# condition_label: Homo sapiens
// reported abundance fitness per item
observation_type: abundance fitness

# sequence_code, result_number
rows = [
    ("IMNSCEQCGEYLPSKGAGNNVLVIDGQQKRFCCQSCVSEYKQVG [C4S]", 0.25),
    ("ILNCCEQCGEYLPSKGAGNNVLVIDGQQKRFCCQSCVSEYKQVG [M2L]", -0.104),
    ("IMNCCEQCGEYLPSKGAGNNVLVIDGQQKRFCCQSTVSEYKQVG [C36T]", -0.106),
    ("IMNCCEQCGEYLPSKGAGNNVLVKDGQQKRFCCQSCVSEYKQVG [I24K]", -0.079),
    ("IMNCCENCGEYLPSKGAGNNVLVIDGQQKRFCCQSCVSEYKQVG [Q7N]", -0.436),
    ("YMNCCEQCGEYLPSKGAGNNVLVIDGQQKRFCCQSCVSEYKQVG [I1Y]", -0.402),
    ("IMNYCEQCGEYLPSKGAGNNVLVIDGQQKRFCCQSCVSEYKQVG [C4Y]", -0.45),
    ("IMNCCEQCGEYLPSKGAGNNVFVIDGQQKRFCCQSCVSEYKQVG [L22F]", -0.184),
    ("IMNCCEQCGEYLPSKGAGNNVLVIDGFQKRFCCQSCVSEYKQVG [Q27F]", -0.173),
    ("IMNCCEQCGEYLPSKGAGNMVLVIDGQQKRFCCQSCVSEYKQVG [N20M]", -0.038),
    ("IMNCCEQCGEYLPSKGAGNNVLVIDGQQLRFCCQSCVSEYKQVG [K29L]", -0.067),
    ("IMNCCEQCGEYLPSKGAGNNVLLIDGQQKRFCCQSCVSEYKQVG [V23L]", -0.235),
    ("IMNCCEQCGEYLPSKGAGNKVLVIDGQQKRFCCQSCVSEYKQVG [N20K]", -0.209),
    ("IMNCCEQCGEYLPSKGAGNNVLVIDGQQKRFCCKSCVSEYKQVG [Q34K]", -0.213),
    ("EMNCCEQCGEYLPSKGAGNNVLVIDGQQKRFCCQSCVSEYKQVG [I1E]", -0.012),
    ("IGNCCEQCGEYLPSKGAGNNVLVIDGQQKRFCCQSCVSEYKQVG [M2G]", -0.148),
    ("IMNCCKQCGEYLPSKGAGNNVLVIDGQQKRFCCQSCVSEYKQVG [E6K]", -0.231),
    ("IMNCCEQCGEYLPRKGAGNNVLVIDGQQKRFCCQSCVSEYKQVG [S14R]", -0.456),
    ("IMNCCEQCGEYLPSKGAGNNVLVIDGQQKRFCCQSCVSEYKHVG [Q42H]", -0.08),
    ("IMNCCEQCGEYLESKGAGNNVLVIDGQQKRFCCQSCVSEYKQVG [P13E]", -0.171),
    ("IMNCCEQCGEYLPSKGAGNNVKVIDGQQKRFCCQSCVSEYKQVG [L22K]", -0.073),
    ("IDNCCEQCGEYLPSKGAGNNVLVIDGQQKRFCCQSCVSEYKQVG [M2D]", -0.049),
]
